The origin of these recorded values is patent US12448389B2.

# Study System: SMARCA4-HiBiT (Homo sapiens, UniProt P51532)
# Construct: SMARCA4-HiBiT knock-in Hela monoclonal cell (CS3023226); host or cells: HeLa monoclonal knock-in line (CRISPR HiBiT knock-in at the endogenous locus, heterozygous)
# Sequence (P51532 whole entry): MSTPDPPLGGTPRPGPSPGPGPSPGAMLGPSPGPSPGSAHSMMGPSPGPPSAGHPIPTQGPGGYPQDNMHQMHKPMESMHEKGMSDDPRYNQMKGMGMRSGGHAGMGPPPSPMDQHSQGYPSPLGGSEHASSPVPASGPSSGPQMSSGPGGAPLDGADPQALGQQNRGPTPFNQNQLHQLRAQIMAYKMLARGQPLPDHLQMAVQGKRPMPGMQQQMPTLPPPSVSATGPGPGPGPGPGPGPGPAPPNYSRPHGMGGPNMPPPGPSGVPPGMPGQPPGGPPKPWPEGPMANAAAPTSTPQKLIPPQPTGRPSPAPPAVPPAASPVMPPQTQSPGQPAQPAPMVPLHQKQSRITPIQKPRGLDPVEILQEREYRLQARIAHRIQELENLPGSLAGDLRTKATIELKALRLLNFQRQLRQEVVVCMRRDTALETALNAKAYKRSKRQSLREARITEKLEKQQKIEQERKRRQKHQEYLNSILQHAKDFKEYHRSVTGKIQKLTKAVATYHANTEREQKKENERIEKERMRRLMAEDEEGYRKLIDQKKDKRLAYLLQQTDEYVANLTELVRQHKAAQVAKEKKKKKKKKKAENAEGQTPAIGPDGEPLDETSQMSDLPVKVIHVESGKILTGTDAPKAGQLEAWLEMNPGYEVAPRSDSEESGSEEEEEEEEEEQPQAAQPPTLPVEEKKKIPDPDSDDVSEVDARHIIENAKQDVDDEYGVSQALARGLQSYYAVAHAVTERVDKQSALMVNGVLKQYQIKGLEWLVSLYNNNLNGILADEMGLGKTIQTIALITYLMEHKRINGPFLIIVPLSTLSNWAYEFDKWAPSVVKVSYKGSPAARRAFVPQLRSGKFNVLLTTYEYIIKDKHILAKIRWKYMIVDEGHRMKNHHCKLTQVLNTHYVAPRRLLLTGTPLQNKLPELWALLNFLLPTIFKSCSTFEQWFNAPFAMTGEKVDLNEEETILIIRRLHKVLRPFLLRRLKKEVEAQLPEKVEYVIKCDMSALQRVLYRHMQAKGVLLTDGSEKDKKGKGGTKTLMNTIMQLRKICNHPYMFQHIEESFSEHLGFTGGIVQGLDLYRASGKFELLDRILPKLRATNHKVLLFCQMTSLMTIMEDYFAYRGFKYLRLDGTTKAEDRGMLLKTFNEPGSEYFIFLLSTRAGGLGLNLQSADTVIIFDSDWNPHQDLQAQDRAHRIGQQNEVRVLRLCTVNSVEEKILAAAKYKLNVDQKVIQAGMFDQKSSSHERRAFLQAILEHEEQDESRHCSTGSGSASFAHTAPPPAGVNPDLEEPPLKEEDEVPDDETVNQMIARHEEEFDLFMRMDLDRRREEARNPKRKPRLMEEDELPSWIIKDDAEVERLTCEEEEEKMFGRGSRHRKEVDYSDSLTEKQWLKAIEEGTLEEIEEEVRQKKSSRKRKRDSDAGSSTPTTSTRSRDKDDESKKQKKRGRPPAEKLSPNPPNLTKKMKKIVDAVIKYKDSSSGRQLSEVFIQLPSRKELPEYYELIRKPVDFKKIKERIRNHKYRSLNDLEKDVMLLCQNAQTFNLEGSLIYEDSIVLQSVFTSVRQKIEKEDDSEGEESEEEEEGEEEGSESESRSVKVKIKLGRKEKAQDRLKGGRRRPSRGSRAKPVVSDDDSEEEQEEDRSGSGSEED
# Measurement Notes: SMARCA4 HiBiT degradation assay in HeLa cells
# Type: cell-based
# Conditions: HeLa, 18 hours incubation, read-out: HeLa-HiBit-SM4 Dmax (%)
Dmax listing for selected compounds.

The examples below pair each entry with its known result.
O=C1CCC(N2Cc3ccc(C4CCN(CC5CCN(C(=O)N6CCN7c8cc(-c9ccccc9O)nnc8NC[C@H]7C6)CC5)CC4)cc3C2=O)C(=O)N1 (stereo partly drawn) ... 75 to 85%
O=C1CCC(N2Cc3cc(C4CCN(C5CCN(CCN6CCN7c8cc(-c9ccccc9O)nnc8NC[C@H]7C6)CC5)CC4)ccc3C2=O)C(=O)N1 (stereo partly drawn) ... > 85%
CC1(CN2C[C@@H]3[C@@H](CN4CCN5c6cc(-c7ccccc7O)nnc6NC[C@H]5C4)[C@@H]3C2)CCN(c2ccc3c(c2)C(=O)N(C2CCC(=O)NC2=O)C3=O)C1 (stereo partly drawn) ... 50 to 75%
O=C1CCC(N2C(=O)c3cccc(N4CCC(CN5CCC(CN6CCN7c8cc(-c9ccccc9O)nnc8NC[C@H]7C6)CC5)CC4)c3C2=O)C(=O)N1 (stereo partly drawn) ... 75 to 85%
CN(C(=O)N1CCN2c3cc(-c4ccccc4O)nnc3NC[C@H]2C1)C1CCN(CC2CCN(c3ccc4c(c3)CN(C3CCC(=O)NC3=O)C4=O)CC2)CC1 (stereo partly drawn) ... > 85%

In: Query Dmax for C[C@@H](CN1CCC(N2CCN3c4cc(-c5ccccc5O)nnc4NC[C@H]3C2)CC1)Nc1cccc2c1C(=O)N(C1CCC(=O)NC1=O)C2=O (stereo partly drawn)
Out: 75 to 85%
